# method.notes: self-splicing fitness, log relative to wild type (ln ratio); higher = more splicing; Tetrahymena group I intron in knt gene, E. coli kanamycin selection, DiMSum; sequences stand for … in CUCUCU…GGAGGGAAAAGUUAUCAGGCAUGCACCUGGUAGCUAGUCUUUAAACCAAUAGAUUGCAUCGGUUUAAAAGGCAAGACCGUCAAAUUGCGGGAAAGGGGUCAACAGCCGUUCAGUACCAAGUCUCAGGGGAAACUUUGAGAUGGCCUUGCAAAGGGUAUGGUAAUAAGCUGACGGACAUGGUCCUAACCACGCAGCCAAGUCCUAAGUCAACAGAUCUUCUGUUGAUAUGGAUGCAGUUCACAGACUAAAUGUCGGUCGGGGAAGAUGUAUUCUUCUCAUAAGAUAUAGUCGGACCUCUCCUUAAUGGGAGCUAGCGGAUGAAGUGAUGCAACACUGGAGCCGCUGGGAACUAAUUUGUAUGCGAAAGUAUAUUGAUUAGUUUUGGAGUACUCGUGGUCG;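 note: selection with 25 µg/mL kanamycin versus none on LB agar overnight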
# setup.conditions: 30 °C
measurement.type: self-splicing fitness (ln)
Keep the answer to the number alone.

Examples from the recorded data:
INSERT INTO measurements (sequence_code, measurement) VALUES
  ('CUAAAGCAAUAUUACGUUCA', -3.24),
  ('UAUUAGCAAUAUUACGUGAA', -2.17),
  ('CCUCAGCAAUAUUACGUUUG', -1.46),
  ('CUUCAGCAAUAUUACGUGAG', -0.619),
  ('UGGUAGCAAUAUUACGGAUU', -3.77);

-- ask What value of self-splicing fitness (ln) has been reported for the following sequence? CUCGAGCAAUAUUACGGAUG
-- reply -2.21

-- ask GET /values?readout=self-splicing fitness (ln)&item= UAGUAGCAAUAUUACGGCUA
-- reply 0.21

-- ask Data request, read-out self-splicing fitness (ln), for AGACAGCAAUAUUACGCAUU
-- reply -3.41

-- ask Quick check: self-splicing fitness (ln) of UACCAGCAAUAUUACGGAUC ?
-- reply -1.46

-- ask Would you kindly share the measured self-splicing fitness (ln) for GAUUAGCAAUAUUACGUCAG ?
-- reply -3.51

* * *

# method.notes: self-splicing fitness, log relative to wild type (ln ratio); higher = more splicing; Tetrahymena group I intron in knt gene, E. coli kanamycin selection, DiMSum; sequences stand for … in CUCUCU…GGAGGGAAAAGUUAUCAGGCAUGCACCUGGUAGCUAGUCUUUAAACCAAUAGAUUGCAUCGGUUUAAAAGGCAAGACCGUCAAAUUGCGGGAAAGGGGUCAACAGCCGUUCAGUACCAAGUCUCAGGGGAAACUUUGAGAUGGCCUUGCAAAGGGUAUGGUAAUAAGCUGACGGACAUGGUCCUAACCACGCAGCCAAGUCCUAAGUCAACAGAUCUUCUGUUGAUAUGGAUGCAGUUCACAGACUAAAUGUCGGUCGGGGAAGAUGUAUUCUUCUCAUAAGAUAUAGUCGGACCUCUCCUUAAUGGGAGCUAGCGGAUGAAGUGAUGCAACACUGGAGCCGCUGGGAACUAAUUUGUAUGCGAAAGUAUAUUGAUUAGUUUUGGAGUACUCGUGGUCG
# setup.conditions: 30 °C
Cut-off -2 on self-splicing fitness (ln), inclusive. At or above means 1.0; below means 0.0.

Examples with answers:
INSERT INTO measurements (sequence_code, category_label) VALUES
  ('CGACAGCAAUAUUACGUUGA', 0.0),
  ('UAUUAGCAAUAUUACGAAUC', 0.0);

Now for another entry.
-- ask Kindly determine if self-splicing fitness (ln) recorded for AGAUAGCAAUAUUACGCAGA is above or exactly -2.
-- reply 0.0
